- MEASUREMENT_TARGET: SB100X-H19Y (synthetic Sleeping Beauty transposon, K14R;H19Y;K33A;R115H;R214D;K215A;E216V;N217Q;M243H;T314N)
- ASSAY_PROTOCOL: MST; Full-length MST: 50 mM Tris pH 7.5, 5 mM MgCl2, 300 mM NaCl, 2% glycerol, 50 mM Arg-Glu, 1 mM TCEP, 0.1% Triton X-100, 0.1 mg/ml BSA, 30 nM Cy5-DNA, room temp
- PARTICULARS: protein: recombinant; tags: Ni-NTA purified; label: 5' Cy5 on forward strand (MST)
Kd: recorded values
Please give a number only; it is taken to be in nM.

>>> print(df.to_string())
                                     binder  measurement_kind  display_unit  quantitative_readout
0  DR-core (dsDNA) DNA 1: TCGGAAGTTTACATACAC DNA 2: GTGTATGTAAACTTCCGA                Kd            nM                  31.2
1  Li (dsDNA) DNA 1: TCCAGTGGGTCAGAAGTTTACATACACTAAGT DNA 2: ACTTAGTGTATGTAAACTTCTGACCCACTGGA                Kd            nM                  10.3

Proceeding to the next binder to report its Kd.
Measured Kd, Lo (dsDNA) DNA 1: CAGTTGAAGTCGGAAGTTTACATACACTTAAG DNA 2: CTTAAGTGTATGTAAACTTCCGACTTCAACTG : 29.7
